target: UniProtKB P52333
Sequence (P52333 whole entry): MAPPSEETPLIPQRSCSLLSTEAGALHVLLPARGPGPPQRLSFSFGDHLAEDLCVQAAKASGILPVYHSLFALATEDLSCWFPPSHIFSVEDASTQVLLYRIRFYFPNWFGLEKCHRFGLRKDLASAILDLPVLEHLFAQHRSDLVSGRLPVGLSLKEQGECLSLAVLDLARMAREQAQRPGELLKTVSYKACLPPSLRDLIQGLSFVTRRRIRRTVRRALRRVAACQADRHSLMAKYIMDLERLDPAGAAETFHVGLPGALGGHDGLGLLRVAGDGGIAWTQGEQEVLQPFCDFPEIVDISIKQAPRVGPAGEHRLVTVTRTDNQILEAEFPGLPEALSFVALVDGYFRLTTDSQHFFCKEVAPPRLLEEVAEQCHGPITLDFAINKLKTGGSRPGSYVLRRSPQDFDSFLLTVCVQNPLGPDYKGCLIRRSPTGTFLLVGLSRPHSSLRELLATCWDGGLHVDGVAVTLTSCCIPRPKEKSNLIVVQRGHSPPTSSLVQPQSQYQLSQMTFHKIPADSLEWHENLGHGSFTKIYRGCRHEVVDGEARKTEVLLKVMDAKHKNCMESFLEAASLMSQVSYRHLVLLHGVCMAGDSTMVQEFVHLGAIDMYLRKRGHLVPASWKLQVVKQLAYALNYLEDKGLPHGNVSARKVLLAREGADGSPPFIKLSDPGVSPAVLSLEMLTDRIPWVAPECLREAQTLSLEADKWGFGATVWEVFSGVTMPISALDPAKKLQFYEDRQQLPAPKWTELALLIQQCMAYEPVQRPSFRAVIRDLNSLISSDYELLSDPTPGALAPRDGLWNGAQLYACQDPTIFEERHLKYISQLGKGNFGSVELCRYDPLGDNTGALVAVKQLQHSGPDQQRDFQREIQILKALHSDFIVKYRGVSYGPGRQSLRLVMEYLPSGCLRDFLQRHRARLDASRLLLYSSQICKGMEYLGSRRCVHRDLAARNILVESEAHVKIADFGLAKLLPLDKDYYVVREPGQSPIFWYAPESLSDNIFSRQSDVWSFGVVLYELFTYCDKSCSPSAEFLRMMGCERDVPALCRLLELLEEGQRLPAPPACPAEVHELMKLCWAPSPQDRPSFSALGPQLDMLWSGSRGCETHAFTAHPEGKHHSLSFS
experimental.endpoint: Kd (nM)

INSERT INTO results (smiles_code, experimental_endpoint, assay_value) VALUES
  ('CCc1cc(O)c(F)cc1-c1ccc2c(-c3nc4c([nH]3)CCN(C(=O)N3CCOCC3)C4)n[nH]c2c1', 'Kd', 0.098);

* * *

# concentration at 6 h annotations
assay: Systemic pharmacokinetics and total colon tissue distribution after single oral administration; assay type: in vivo, male C57BL/6 mice; conditions: male, C57BL/6, mouse; mice, oral 10 mg/kg, plasma, 6 h; read-out: Mean plasma concentration
experimental.endpoint: concentration at 6 h (ng/mL)

INSERT INTO measurements (compound, display_unit, assay_value) VALUES
  ('CCc1cc(O)c(F)cc1-c1ccc2c(-c3nc4c([nH]3)CCN(C(=O)N3CCOCC3)C4)n[nH]c2c1 [Example 1]', 'ng/mL', 0),
  ('CCc1cc(O)c(F)cc1-c1ccc2c(-c3nc4c([nH]3)CCN(C(=O)c3cnc(N5CCCCC5)cn3)C4)n[nH]c2c1 [Reference Compound, reference compound]', 'ng/mL', 114);

* * *

assay: Solubility in fasted-state simulated colonic fluid (FaSSCoF); assay type: physicochemical; settings: 25 °C, pH 6.5, fassgf or other biorelevant, thermodynamic from solid, pH 6.5, 25° C., Run 1, read-out: pH 6.5 FaSSCoF Solubility, Run 1
experimental.endpoint: solubility thermodynamic at 24 h (µg/mL)

INSERT INTO results (smiles_code, display_unit, assay_value) VALUES
  ('CCc1cc(O)c(F)cc1-c1ccc2c(-c3nc4c([nH]3)CCN(C(=O)N3CCC(N5CCCCC5)CC3)C4)n[nH]c2c1', 'µg/mL', 30),
  ('CCc1cc(O)c(F)cc1-c1ccc2c(-c3nc4c([nH]3)CCN(C(=O)N3CCOCC3)C4)n[nH]c2c1', 'µg/mL', 40);

* * *

experiment: Systemic pharmacokinetics and total colon tissue distribution after single oral administration; assay type: in vivo, male C57BL/6 mice; details: male, C57BL/6, mouse; mice, oral 10 mg/kg, plasma, 12 h; read-out: Mean plasma concentration
experimental.endpoint: concentration at 12 h (ng/mL)

INSERT INTO results (molecule, experimental_endpoint, display_unit, assay_value) VALUES
  ('CCc1cc(O)c(F)cc1-c1ccc2c(-c3nc4c([nH]3)CCN(C(=O)N3CCOCC3)C4)n[nH]c2c1 [Example 1]', 'concentration at 12 h', 'ng/mL', 0),
  ('CCc1cc(O)c(F)cc1-c1ccc2c(-c3nc4c([nH]3)CCN(C(=O)c3cnc(N5CCCCC5)cn3)C4)n[nH]c2c1 [Reference Compound, reference compound]', 'concentration at 12 h', 'ng/mL', 0);

* * *

test: Systemic pharmacokinetics and total colon tissue distribution after single oral administration; type: in vivo, male C57BL/6 mice; details: male, C57BL/6, mouse, total colon tissue; mice, oral 10 mg/kg, total colon, 24 h; read-out: Mean total colon level
experimental.endpoint: concentration at 24 h (ng/g)

INSERT INTO results (molecule, display_unit, assay_value) VALUES
  ('CCc1cc(O)c(F)cc1-c1ccc2c(-c3nc4c([nH]3)CCN(C(=O)N3CCOCC3)C4)n[nH]c2c1', 'ng/g', 350),
  ('CCc1cc(O)c(F)cc1-c1ccc2c(-c3nc4c([nH]3)CCN(C(=O)c3cnc(N5CCCCC5)cn3)C4)n[nH]c2c1 [Reference Compound, reference compound]', 'ng/g', 16.6);

From: patent US10882859B2
